# Assay Remarks: Acute toxicity in mice (50% lethal dose, i.v. injection 2 consecutive days)
# Format: in vivo
# Condition Description: mouse, in vivo, iv
Measurement Kind: LD50

For this compound ( COc1cccc2c1C(=O)c1c(O)c3c(c(O)c1C2=O)C[C@@](O)(C(=O)CO)C[C@@H]3O[C@H]1C[C@H](NC(=O)[C@@H](N)CC(C)C)[C@H](O)[C@H](C)O1 [N-(L-leucyl)doxorubicine] ), measured LD50 is ~67 mg/kg
